Taken from ChEMBL document CHEMBL3621170.

// reported selectivity ratio for each item listed
# ASSAY NAME: Ratio of IC50 for dark toxicity in human HepG2 cells to IC50 for photo cytotoxic activity against human HepG2 cells irradiated with 1.7 J/cm'2 light dose
# Format: cell-based
# EXPERIMENTAL CONTEXT: read-out: Ratio IC50

Tell us which selectivity ratio value is on record for C=Cc1c(C)c2cc3nc(c(CC(=O)NCCN4C(=O)CC(SC[C@H](NC(=O)CC[C@H](N)C(=O)O)C(=O)NCC(=O)O)C4=O)c4[nH]c(cc5nc(cc1[nH]2)C(C)=C5CC)c(C)c4C(=O)OC)[C@@H](CCC(=O)OC)[C@@H]3C (some centres undefined)
> 8.1

More entries:
Name the recorded selectivity ratio of the item C=Cc1c(C)c2cc3nc(c(CC(=O)OC)c4[nH]c(cc5nc(cc1[nH]2)C(C)=C5CC)c(C)c4C(=O)NCCN1C(=O)CC(SC[C@H](N)C(=O)O)C1=O)[C@@H](CCC(=O)OC)[C@@H]3C (some centres undefined) in your answer.
> 14.9

In one line, give reported selectivity ratio of the entry C=Cc1c(C)c2cc3nc(c(CC(=O)OC)c4[nH]c(cc5nc(cc1[nH]2)C(C)=C5CC)c(C)c4C(=O)NCCN1C(=O)CC(SC[C@H](NC(=O)CC[C@H](N)C(=O)O)C(=O)NCC(=O)O)C1=O)[C@@H](CCC(=O)OC)[C@@H]3C (some centres undefined) .
> 9.8

Fill in reported selectivity ratio for this entry: C=Cc1c(C)c2cc3nc(c(CC(=O)NCCN4C(=O)C=CC4=O)c4[nH]c(cc5nc(cc1[nH]2)C(C)=C5CC)c(C)c4C(=O)OC)[C@@H](CCC(=O)OC)[C@@H]3C
2.2

Report selectivity ratio, nothing else, for this compound: C=Cc1c(C)c2cc3nc(c4c5[nH]c(cc6nc(cc1[nH]2)C(C)=C6CC)c(C)c5C(=O)[C@@H]4C(=O)OC)[C@@H](CCC(=O)NCCN1C(=O)C=CC1=O)[C@@H]3C
3.7
